Reference source for all entries: patent US11013780B2

test: Single dose PK, phase 1, healthy European men; assay type: in vivo, human; details: male, human, plasma, single SC 0.03 mg, geometric mean
Where a SMILES comes first, the peptide text is derived from it. [ ]: non-standard residue; d: D form. Arg(Me) = CNC(=N)NCCC[C@H](N)C(=O)O; Hyp = O=C(O)[C@@H]1C[C@@H](O)CN1; azaGly = NNC(=O)O
Assay metric: AUC(0-t) (ng·h/mL)
One number for each entry, in ng·h/mL.

Noted for CC(=O)O.CNC(=N)NCCC[C@H](NC(=O)[C@H](CC(C)C)NC(=O)NNC(=O)[C@H](Cc1ccccc1)NC(=O)[C@@H](NC(=O)[C@H](CC(N)=O)NC(=O)[C@@H]1C[C@@H](O)CN1C(=O)[C@@H](Cc1ccc(O)cc1)NC(C)=O)[C@@H](C)O)C(=O)N[C@@H](Cc1c[nH]c2ccccc12)C(N)=O [API-MA] (Ac-[dY][Hyp]NTF[azaGly]L[Arg(Me)]W-NH2) : its AUC(0-t) reads 1.07

---

experiment: Single dose PK, phase 1, healthy European men; type: in vivo, human; conditions: male, human, urine, single SC 0.3 mg, geometric mean, read-out: Fe (urine)
Where a SMILES comes first, the peptide text is derived from it. [ ]: non-standard residue; d: D form. Arg(Me) = CNC(=N)NCCC[C@H](N)C(=O)O; Hyp = O=C(O)[C@@H]1C[C@@H](O)CN1; azaGly = NNC(=O)O
Assay metric: dose excreted (%)
One number for each entry, in %.

Noted for CC(=O)O.CNC(=N)NCCC[C@H](NC(=O)[C@H](CC(C)C)NC(=O)NNC(=O)[C@H](Cc1ccccc1)NC(=O)[C@@H](NC(=O)[C@H](CC(N)=O)NC(=O)[C@@H]1C[C@@H](O)CN1C(=O)[C@@H](Cc1ccc(O)cc1)NC(C)=O)[C@@H](C)O)C(=O)N[C@@H](Cc1c[nH]c2ccccc12)C(N)=O [API-MA] (Ac-[dY][Hyp]NTF[azaGly]L[Arg(Me)]W-NH2) : its dose excreted reads 3.77

---

test: Multiple-dose PK, 2-hour SC infusion once daily for 14 days, Japanese prostate cancer patients; assay type: in vivo, human; conditions: male, human, in vivo; 0.5 mg/day, Day 1, mean
Where a SMILES comes first, the peptide text is derived from it. [ ]: non-standard residue; d: D form. Arg(Me) = CNC(=N)NCCC[C@H](N)C(=O)O; Hyp = O=C(O)[C@@H]1C[C@@H](O)CN1; azaGly = NNC(=O)O
Assay metric: AUC(0-inf) (ng·h/mL)
Answers are plain numbers, in ng·h/mL.

Noted for CC(=O)O.CNC(=N)NCCC[C@H](NC(=O)[C@H](CC(C)C)NC(=O)NNC(=O)[C@H](Cc1ccccc1)NC(=O)[C@@H](NC(=O)[C@H](CC(N)=O)NC(=O)[C@@H]1C[C@@H](O)CN1C(=O)[C@@H](Cc1ccc(O)cc1)NC(C)=O)[C@@H](C)O)C(=O)N[C@@H](Cc1c[nH]c2ccccc12)C(N)=O [API-MA] (Ac-[dY][Hyp]NTF[azaGly]L[Arg(Me)]W-NH2) : its AUC(0-inf) reads 36.8

---

experiment: Pharmacokinetics in dogs after SC and IV administration; settings: dog, in vivo, iv, 1 mg/kg, T½ γ (elimination)
Where a SMILES comes first, the peptide text is derived from it. [ ]: non-standard residue; d: D form. Arg(Me) = CNC(=N)NCCC[C@H](N)C(=O)O; Hyp = O=C(O)[C@@H]1C[C@@H](O)CN1; azaGly = NNC(=O)O
Assay metric: half-life (h)
Give bare numbers, in h.

Noted for CNC(=N)NCCC[C@H](NC(=O)[C@H](CC(C)C)NC(=O)NNC(=O)[C@H](Cc1ccccc1)NC(=O)[C@@H](NC(=O)[C@H](CC(N)=O)NC(=O)[C@@H]1C[C@@H](O)CN1C(=O)[C@@H](Cc1ccc(O)cc1)NC(C)=O)[C@@H](C)O)C(=O)N[C@@H](Cc1c[nH]c2ccccc12)C(N)=O [Compound 1] (Ac-[dY][Hyp]NTF[azaGly]L[Arg(Me)]W-NH2) : its half-life reads 3

---

Assay: Multiple-dose PK, 2-hour SC infusion once daily for 14 days, Japanese prostate cancer patients
Type: in vivo, human
Conditions: male, human, in vivo, sc, 0.5 mg/day, Japanese prostate cancer patients, 2-hour SC infusion 0.5 mg/day, Day 14, mean
Protocol: It was an open-label, ascending dose study of API-MA administered via 2-hour SC infusion once daily for 14 days that was expected to suppress testosterone in Japanese hormone-naïve prostate cancer patients. Six patients received API-MA at doses of 0.5 mg (3 patients) and 1.0 mg (3 patients) a day for 14 days. […]
Where a SMILES comes first, the peptide text is derived from it. [ ]: non-standard residue; d: D form. Arg(Me) = CNC(=N)NCCC[C@H](N)C(=O)O; Hyp = O=C(O)[C@@H]1C[C@@H](O)CN1; azaGly = NNC(=O)O
Assay metric: Cmax (ng/mL)
Answers are plain numbers, in ng/mL.

Noted for CC(=O)O.CNC(=N)NCCC[C@H](NC(=O)[C@H](CC(C)C)NC(=O)NNC(=O)[C@H](Cc1ccccc1)NC(=O)[C@@H](NC(=O)[C@H](CC(N)=O)NC(=O)[C@@H]1C[C@@H](O)CN1C(=O)[C@@H](Cc1ccc(O)cc1)NC(C)=O)[C@@H](C)O)C(=O)N[C@@H](Cc1c[nH]c2ccccc12)C(N)=O [API-MA] (Ac-[dY][Hyp]NTF[azaGly]L[Arg(Me)]W-NH2) : its Cmax reads 8.13

---

assay: Single dose PK, phase 1, healthy Japanese men; assay type: in vivo, human; conditions: male, human, plasma, sc, 0.001 mg, single SC bolus 0.001 mg, mean, read-out: T½ (converted)
Where a SMILES comes first, the peptide text is derived from it. [ ]: non-standard residue; d: D form. Arg(Me) = CNC(=N)NCCC[C@H](N)C(=O)O; Hyp = O=C(O)[C@@H]1C[C@@H](O)CN1; azaGly = NNC(=O)O
Assay metric: half-life (h)
Give bare numbers, in h.

Noted for CC(=O)O.CNC(=N)NCCC[C@H](NC(=O)[C@H](CC(C)C)NC(=O)NNC(=O)[C@H](Cc1ccccc1)NC(=O)[C@@H](NC(=O)[C@H](CC(N)=O)NC(=O)[C@@H]1C[C@@H](O)CN1C(=O)[C@@H](Cc1ccc(O)cc1)NC(C)=O)[C@@H](C)O)C(=O)N[C@@H](Cc1c[nH]c2ccccc12)C(N)=O [API-MA] (Ac-[dY][Hyp]NTF[azaGly]L[Arg(Me)]W-NH2) : its half-life reads 1.59

---

assay: Single dose PK, phase 1, healthy European men; format: in vivo, human; settings: male, human, plasma, subcutaneous, 6 mg, 3 and 6 mg, read-out: Mean T1/2 at the highest doses (converted)
Where a SMILES comes first, the peptide text is derived from it. [ ]: non-standard residue; d: D form. Arg(Me) = CNC(=N)NCCC[C@H](N)C(=O)O; Hyp = O=C(O)[C@@H]1C[C@@H](O)CN1; azaGly = NNC(=O)O
Assay metric: half-life

Noted for CC(=O)O.CNC(=N)NCCC[C@H](NC(=O)[C@H](CC(C)C)NC(=O)NNC(=O)[C@H](Cc1ccccc1)NC(=O)[C@@H](NC(=O)[C@H](CC(N)=O)NC(=O)[C@@H]1C[C@@H](O)CN1C(=O)[C@@H](Cc1ccc(O)cc1)NC(C)=O)[C@@H](C)O)C(=O)N[C@@H](Cc1c[nH]c2ccccc12)C(N)=O [API-MA] (Ac-[dY][Hyp]NTF[azaGly]L[Arg(Me)]W-NH2) : its half-life reads ~5.2 h

---

assay: Single dose PK, phase 1, healthy Japanese men; assay type: in vivo, human; settings: male, human, plasma, sc, 0.04 mg, single SC bolus 0.04 mg, mean
Where a SMILES comes first, the peptide text is derived from it. [ ]: non-standard residue; d: D form. Arg(Me) = CNC(=N)NCCC[C@H](N)C(=O)O; Hyp = O=C(O)[C@@H]1C[C@@H](O)CN1; azaGly = NNC(=O)O
Assay metric: AUC(0-inf) (ng·h/mL)
Numbers only, in ng·h/mL.

Noted for CC(=O)O.CNC(=N)NCCC[C@H](NC(=O)[C@H](CC(C)C)NC(=O)NNC(=O)[C@H](Cc1ccccc1)NC(=O)[C@@H](NC(=O)[C@H](CC(N)=O)NC(=O)[C@@H]1C[C@@H](O)CN1C(=O)[C@@H](Cc1ccc(O)cc1)NC(C)=O)[C@@H](C)O)C(=O)N[C@@H](Cc1c[nH]c2ccccc12)C(N)=O [API-MA] (Ac-[dY][Hyp]NTF[azaGly]L[Arg(Me)]W-NH2) : its AUC(0-inf) reads 2.61

---

experiment: Single dose PK, phase 1, healthy Japanese men; type: in vivo, human; conditions: male, human, plasma, sc, 0.25 mg, single SC bolus 0.25 mg, mean
Where a SMILES comes first, the peptide text is derived from it. [ ]: non-standard residue; d: D form. Arg(Me) = CNC(=N)NCCC[C@H](N)C(=O)O; Hyp = O=C(O)[C@@H]1C[C@@H](O)CN1; azaGly = NNC(=O)O
Assay metric: AUC(0-inf)

Noted for CC(=O)O.CNC(=N)NCCC[C@H](NC(=O)[C@H](CC(C)C)NC(=O)NNC(=O)[C@H](Cc1ccccc1)NC(=O)[C@@H](NC(=O)[C@H](CC(N)=O)NC(=O)[C@@H]1C[C@@H](O)CN1C(=O)[C@@H](Cc1ccc(O)cc1)NC(C)=O)[C@@H](C)O)C(=O)N[C@@H](Cc1c[nH]c2ccccc12)C(N)=O [API-MA] (Ac-[dY][Hyp]NTF[azaGly]L[Arg(Me)]W-NH2) : its AUC(0-inf) reads 18.3 ng·h/mL
